Overview of reported cytotoxicity at 70.5 h across a group of molecules:
# ASSAY_PROTOCOL: Human HepG2 cell viability assay in 384 well format
# Type: toxicity, cell-based
# Design: dose 125 nL, time 70.5 hour; concentration not given beside the values
# CONDITION_LABEL: HepG2 cells, read-out: Inhibition
State just the number; it will be interpreted in %.

Some solved entries appear below for comparison.
O=C(NCCc1ccccn1)c1[nH]nc2c1CCCC2: 3.78
O=C(Cc1c[nH]c2ccccc12)NCC1CCN(Cc2c[nH]cn2)C1 (centres undefined): -6.01
CCC(CO)N(Cc1ccc(C(=O)O)cc1)Cc1ccsc1 (centres undefined): -5.5

Ask: Given the molecule Cc1cccc(C)c1OCC(=O)NC(C)c1nnc2n1CCC2 (centres undefined) , what is its reported cytotoxicity at 70.5 h?
Result: -7.81

Ask: Do the same for CSCc1cc(F)ccc1CNC(=O)N1CCCC(CO)C1 (centres undefined) please
Result: -7.73

Ask: Do the same for O=C(O)CC[C@@H]1CN(c2ncnc3[nH]ccc23)CC[C@@H]1N1CCOCC1 please
Result: -4.6

Ask: Do the same for Cc1cccc2c1cnn2CCCNC(=O)C1CC1 please
Result: -4.27

Ask: Do the same for Cc1nc2cc(C(=O)N(CCC#N)CCC#N)ccc2n1C please
Result: -6.33

Ask: Do the same for O=C1C(NCc2nnc3n2CCCC3)CCN1c1ccccc1 (centres undefined) please
Result: -5.59

Ask: Do the same for Cc1ncsc1C(=O)N(C)Cc1ccsc1 please
Result: -12.2

Ask: Do the same for O=C(N[C@H]1CN(c2nc(CO)cs2)C[C@@H]1C1CC1)C1CCCCC1 please
Result: -6.79

Ask: Do the same for CC(C)Cc1cc(CN2C[C@H]3CC[C@@H]2CN(Cc2cscn2)C3)n[nH]1 please
Result: 12.5

Ask: Do the same for COc1cnc(N2CCCN(Cc3ccc(F)cc3)CC2)nc1 please
Result: 4.55

Ask: Do the same for O=C1O[C@@H]2CN(Cc3ccncc3)C[C@@H]2N1CCCN1CCOCC1 please
Result: -3.93

Ask: Do the same for CCOC(=O)N1CCCC2(CCCNC2)C1 (centres undefined) please
Result: -1.34

Ask: Do the same for CS(=O)(=O)CCCC(=O)Nc1cc(-c2cccc(F)c2F)n[nH]1 please
Result: -16.7

Ask: Do the same for CCC[C@@H]1CN(C(=O)c2cnc3ccccc3c2)C[C@H]1NS(C)(=O)=O please
Result: -1.26

* * *

# ASSAY_PROTOCOL: Human HepG2 cell viability assay in 384 well format
# Type: toxicity, cell-based
# Set-up: dose 125 nL, time 70.5 hour; concentration not given beside the values
# CONDITION_LABEL: HepG2 cells, read-out: Inhibition
Overview of reported cytotoxicity at 70.5 h across a group of molecules:
State just the number; it will be interpreted in %.

CCc1nc(C)c(C(=O)NCCN2CCCC2)s1: -5.7

Ask: Given the molecule Cn1ccn2ncc(C(=O)NCc3cccnc3N3CCCC(O)C3)c12 (centres undefined) , what is its reported cytotoxicity at 70.5 h?
Result: -18.3

Ask: Do the same for CCN(CC)C(=O)[C@@H]1C[C@@H](NC(=O)c2cccc(N(C)C)c2)CN1C please
Result: 26.1

Ask: Do the same for CC(C)OCCC(=O)NS(=O)(=O)N1CCOc2ccccc21 please
Result: -0.303

Ask: Do the same for Cc1cc(C)n(C2CN(CC(=O)NCc3ccccn3)C2)n1 please
Result: -16.2

Ask: Do the same for CC(C)(C)OC(=O)N1CCC(C(=O)NC2CCS(=O)(=O)C2)CC1 (centres undefined) please
Result: -6.28

Ask: Do the same for Cc1c[nH]cc1C(=O)N1CCN(CCc2cccs2)CC1 please
Result: -5.85

Ask: Do the same for CC1c2cc(F)ccc2CCN1CCS(=O)(=O)C(C)C (centres undefined) please
Result: -3.51

* * *

# ASSAY_PROTOCOL: Human HepG2 cell viability assay in 384 well format
# Format: toxicity, cell-based
# Set-up: dose 125 nL, time 70.5 hour; concentration not given beside the values
# CONDITION_LABEL: HepG2 cells, read-out: Inhibition
MEASURED_PARAMETER: cytotoxicity at 70.5 h (%)
State just the number; it will be interpreted in %.

CCOC(C)c1nc(CN2CCN(c3ncc(C)cn3)CC2)cs1 (centres undefined): -5.09

Ask: Given the compound CS(=O)(=O)NCCC1CCCCN1C(=O)NCCc1ccccn1 (centres undefined) , what is its reported cytotoxicity at 70.5 h?
Result: -14.3

Ask: Do the same for C[C@@H]1CN(C(=O)c2cccs2)C[C@]12CCN(CCN(C)C)C2=O please
Result: 21.2

Ask: Do the same for O=C1C[C@H]2[C@@H](CCN2C(=O)Cc2ccccc2)N1Cc1cccnc1 please
Result: -8.76

Ask: Do the same for CC(C)COCCNC1CCN(c2ccccn2)CC1 please
Result: 0.205

Ask: Do the same for CCCS(=O)(=O)N1CCCN(CCCOC)CC1 please
Result: 8.01

Ask: Do the same for CCN(C)c1ncnc2c1CCN(Cc1ccc(OC)cc1)CC2 please
Result: -2.63

Ask: Do the same for COCC1CN(C(=O)c2ccc(C)o2)Cc2nccn2C1 (centres undefined) please
Result: 14.4

Ask: Do the same for Cc1nc(CN2CC3(CCN(c4cnccn4)C3)CC2=O)cs1 (centres undefined) please
Result: -10.3

Ask: Do the same for CCc1nc(CC)n(CC(=O)NCc2cccc(C)c2)n1 please
Result: -6.53

Ask: Do the same for CCCOCC1CCN(C(=O)c2cnc(C)nc2O)C1 (centres undefined) please
Result: -2.13

Ask: Do the same for CC(C)c1nc(CN2CCOC(Cn3cncn3)C2)no1 (centres undefined) please
Result: -8.23

Ask: Do the same for CN1CCCC(c2nnc3n2CCN(S(=O)(=O)c2ccccc2Cl)C3)C1 (centres undefined) please
Result: -9.93

Ask: Do the same for Cc1nnc(CN(C)C2CCN(CCc3cccs3)C2)n1C (centres undefined) please
Result: 15.2

Ask: Do the same for CCC(C)NC(=O)CS(=O)(=O)Cc1ccccc1Cl (centres undefined) please
Result: -7.35

Ask: Do the same for NC(=O)C1CN(C(=O)Nc2ccc(SC(F)(F)F)cc2)CCO1 (centres undefined) please
Result: -10.3

Ask: Do the same for Cc1ccc(C(CNC(=O)c2cc(CC(C)C)nn2C)N(C)C)cc1 (centres undefined) please
Result: -3.96

Ask: Do the same for CC1CCCN(C(=O)Nc2ccc(F)c(C(N)=O)c2)C1 (centres undefined) please
Result: -1.11

* * *

# ASSAY_PROTOCOL: Human HepG2 cell viability assay in 384 well format
# Type: toxicity, cell-based
# Set-up: dose 125 nL, time 70.5 hour; concentration not given beside the values
# CONDITION_LABEL: HepG2 cells, read-out: Inhibition
Overview of reported cytotoxicity at 70.5 h across a group of molecules:
State just the number; it will be interpreted in %.

Some solved entries appear below for comparison.
Cc1nc(C(C)C)sc1C(=O)N(C)Cc1nc(-c2ccccn2)no1: -9.57
CN(Cc1nc(-c2cccnc2)no1)C(=O)c1c2c(nn1C)CCCC2: -1.52
CC(C)N(C)Cc1cncc2c1CCN(CC(=O)N(C)C)C2: 20
Cc1cc(=O)[nH]c(SC(C)C(=O)N2CCC(NS(C)(=O)=O)CC2)n1 (centres undefined): 2.17
CCNc1ccnc(N2Cc3cnn(Cc4ccc(F)cc4)c3C2)n1: -4

Ask: Given the molecule CS(=O)(=O)CCOCCNc1cncc(Br)c1 , what is its reported cytotoxicity at 70.5 h?
Result: -3.24

Ask: Do the same for CC(=O)N1CCC2(CC1)C(=O)N(c1cccnc1)c1ccc(F)cc12 please
Result: -4.87

Ask: Do the same for CCCn1[nH]cc/c1=N\C(=O)CN1CCCC1c1cccn1C (centres undefined) please
Result: -2.18

Ask: Do the same for c1coc(CNc2nnc(Cc3ccsc3)o2)c1 please
Result: -3.55

Ask: Do the same for CCNC(=O)COc1ccc(C(=O)NC(C)CCc2ccco2)cc1 (centres undefined) please
Result: 2.41

Ask: Do the same for O=C(CSc1ccc2c(c1)OCCO2)NS(=O)(=O)c1ccccc1 please
Result: -8.6

Ask: Do the same for NC(=O)C1(CNCc2csc(-c3cccs3)n2)CCOCC1 please
Result: -6.81

* * *

Overview of reported cytotoxicity at 70.5 h across a group of molecules:
# ASSAY_PROTOCOL: Human HepG2 cell viability assay in 384 well format
# Format: toxicity, cell-based
# Parameters: dose 125 nL, time 70.5 hour; concentration not given beside the values
# CONDITION_LABEL: HepG2 cells, read-out: Inhibition
State just the number; it will be interpreted in %.

CC(c1nc(C2CC2)no1)N1CCN(CCc2ccncc2)CC1 (centres undefined): -12.6
CN1C(=O)CC(c2cnn(C)c2)C12CCN(C(=O)c1ccnnc1)CC2 (centres undefined): -9.97
CC(=O)NCC(=O)N1CCOC2(CCCN(c3cccnc3)C2)C1 (centres undefined): 14.8
CCN1CCO[C@@H]2CN(C(=O)c3cocn3)C[C@@H]2C1: 34.2
Cn1cc(-c2ccnc(NCC3CCN(Cc4ccccc4)C3)n2)cn1 (centres undefined): 11.9
Cc1nn(C)c(N2CCOCC2)c1CNCc1ccnc(N(C)C)c1: -5.34

Ask: Given the molecule Cc1cnn(CC2CCCN2Cc2cc(=O)n3c(C)csc3n2)c1 (centres undefined) , what is its reported cytotoxicity at 70.5 h?
Result: -4.63

Ask: Do the same for Cc1cc(C(=O)N2CCCC(n3nc(C)cc3C)C2)on1 (centres undefined) please
Result: -10.1

Ask: Do the same for CCN(CC)C(=O)Cn1c(C)cc2nc(SC)n(CC(C)C)c(=O)c21 please
Result: -6.31

Ask: Do the same for COc1ccc(Oc2nccnc2C2CCN(C(C)=O)CC2)cc1 please
Result: -4.84

Ask: Do the same for O=S(=O)(NCC(O)c1ccoc1)c1ccc(Br)s1 (centres undefined) please
Result: -1.32

Ask: Do the same for CCS(=O)(=O)c1ccc2oc([C@H]3CCN(CC4CCCCC4)C3)nc2c1 please
Result: 13.1

Ask: Do the same for COc1cc2c(cc1C1CC(=O)NCc3nc(N(C)C)sc31)CCC2 (centres undefined) please
Result: 0.498

Ask: Do the same for COCC1CN(Cc2ccc(C)o2)Cc2nnn(C)c21 (centres undefined) please
Result: -0.755
